Assay: Half life in male Wistar Han rat at 30 mg/kg,po by LC-MS/MS analysis
Assay type: ADME, organism-based
Details: in vivo
observable: half-life (h)
Give bare numbers, in h.

[Q] Please report half-life for the following molecule: CCOC(=O)C1=C(CN2CCN3C(=O)N(CC(C)(C)C(=O)O)C[C@@H]3C2)NC(c2nccs2)=N[C@H]1c1cccc(F)c1C [LINVENCORVIR]
[A] 2.79

====

Assay: Oral bioavailability in female minipig at 30 mg/kg by LC-MS/MS analysis
Assay type: ADME, organism-based, Sus scrofa domesticus
Conditions: pig, in vivo
observable: bioavailability (%)
Numbers only, in %.

[Q] Please report bioavailability for the following compound: CCOC(=O)C1=C(CN2CCN3C(=O)N(CC(C)(C)C(=O)O)C[C@@H]3C2)NC(c2nccs2)=N[C@H]1c1cccc(F)c1C [LINVENCORVIR]
[A] 12.4
